Target: AKT Kinase-NanoLuc fusion in HEK-293 cells (Homo sapiens)
Construct: host or cells: HEK-293
Sequence (P31749 whole entry, the tested form may be a part): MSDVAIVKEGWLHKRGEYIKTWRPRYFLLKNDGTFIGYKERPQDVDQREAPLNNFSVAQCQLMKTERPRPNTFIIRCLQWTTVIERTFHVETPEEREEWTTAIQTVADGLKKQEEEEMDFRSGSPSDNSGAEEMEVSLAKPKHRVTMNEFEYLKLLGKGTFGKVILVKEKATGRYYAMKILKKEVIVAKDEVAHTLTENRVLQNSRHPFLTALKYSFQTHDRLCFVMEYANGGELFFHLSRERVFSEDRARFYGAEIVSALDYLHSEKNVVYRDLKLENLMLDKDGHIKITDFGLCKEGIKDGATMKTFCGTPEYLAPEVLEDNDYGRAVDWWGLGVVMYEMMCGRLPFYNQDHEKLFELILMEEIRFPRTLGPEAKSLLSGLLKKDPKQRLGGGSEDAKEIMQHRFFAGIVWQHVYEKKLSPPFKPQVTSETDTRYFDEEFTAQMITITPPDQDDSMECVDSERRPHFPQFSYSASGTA
Experiment: NanoBRET target engagement assay in transfected HEK-293 cells, AKT
Assay type: cell-based
Settings: Table 28, NanoBRET, HEK-293 cells; read-out: AKT1 (Cellular) IC50
readout kind: IC50 (µM)

In the examples that follow, each entry is paired with its recorded IC50.
- compound: "C[C@@H]1CN(C2CCNCC2)C[C@H](C)[C@@]1(O)c1c(F)cc(-c2ccnc3[nH]cc(F)c23)cc1F [Compound 90]"
  tgt: "AKT Kinase-NanoLuc fusion in HEK-293 cells (Homo sapiens)"
  measure unit: "µM"
  value measured: 32.3
- compound: "Cc1cc(-c2ccnc3[nH]ccc23)ccc1C1CCNCC1 [Compound 177]"
  tgt: "AKT Kinase-NanoLuc fusion in HEK-293 cells (Homo sapiens)"
  measure unit: "µM"
  value measured: 32
- compound: "Cc1cc(-c2ccnc3[nH]cc(F)c23)cc(F)c1[C@@]1(O)[C@H](C)CN(C(=O)[C@H](N)CO)C[C@@H]1C [Compound 312]"
  tgt: "AKT Kinase-NanoLuc fusion in HEK-293 cells (Homo sapiens)"
  measure unit: "µM"
  value measured: 12.8

1: C[C@@H]1CNC[C@H](C)[C@@]1(O)c1ccc(-c2ccnc3[nH]cc(F)c23)nc1 [Compound 8]
2: NCc1ccc(-c2ccnc3[nH]cc(Cl)c23)cc1 [Compound 276]
3: COC(=O)c1c[nH]c2nccc(-c3cc(C)c([C@@]4(O)[C@H](C)CN(C5CCS(=O)(=O)CC5)C[C@@H]4C)c(F)c3)c12 [Compound 309]
Qu. Would you mind ranking these compounds by ascending IC50? Show the ranking through the labels, in the order asked for.
Ans. 2, 1, 3

----------
Biological target: LATS2 (Homo sapiens, UniProt Q9NRM7)
Sequence (Q9NRM7 whole entry): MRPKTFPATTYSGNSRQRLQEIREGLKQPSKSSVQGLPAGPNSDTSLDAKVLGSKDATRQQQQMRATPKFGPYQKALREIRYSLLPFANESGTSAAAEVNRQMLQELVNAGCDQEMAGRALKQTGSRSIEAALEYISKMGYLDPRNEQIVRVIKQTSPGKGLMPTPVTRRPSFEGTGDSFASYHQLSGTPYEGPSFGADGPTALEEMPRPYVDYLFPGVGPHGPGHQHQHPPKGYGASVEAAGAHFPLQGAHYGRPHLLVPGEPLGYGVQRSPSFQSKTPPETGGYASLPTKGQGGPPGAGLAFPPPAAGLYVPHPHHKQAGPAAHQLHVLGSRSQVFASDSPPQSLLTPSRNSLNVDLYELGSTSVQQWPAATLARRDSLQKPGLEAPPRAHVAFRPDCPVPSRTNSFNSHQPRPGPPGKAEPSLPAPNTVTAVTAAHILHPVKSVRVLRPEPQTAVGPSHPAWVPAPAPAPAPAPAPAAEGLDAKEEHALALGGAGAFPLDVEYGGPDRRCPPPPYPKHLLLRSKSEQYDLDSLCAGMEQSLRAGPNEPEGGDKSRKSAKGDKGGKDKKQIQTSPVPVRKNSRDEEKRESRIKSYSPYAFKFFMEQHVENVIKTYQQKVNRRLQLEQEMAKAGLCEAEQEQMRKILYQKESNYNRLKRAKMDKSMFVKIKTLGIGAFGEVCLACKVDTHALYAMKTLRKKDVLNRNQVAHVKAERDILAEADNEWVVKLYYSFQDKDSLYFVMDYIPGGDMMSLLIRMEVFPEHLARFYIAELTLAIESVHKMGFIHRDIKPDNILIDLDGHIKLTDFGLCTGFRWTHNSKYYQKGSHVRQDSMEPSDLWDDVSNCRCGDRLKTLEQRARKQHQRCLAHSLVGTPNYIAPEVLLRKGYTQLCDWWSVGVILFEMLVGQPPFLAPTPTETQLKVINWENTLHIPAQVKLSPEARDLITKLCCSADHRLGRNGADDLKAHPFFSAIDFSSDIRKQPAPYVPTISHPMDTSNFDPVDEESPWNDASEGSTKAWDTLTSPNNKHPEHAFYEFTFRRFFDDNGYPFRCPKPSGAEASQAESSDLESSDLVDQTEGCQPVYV
Assay: RBC HotSpot kinase assay (33P-ATP, P81 filter-binding), LATS2
Format: biochemical
Conditions: Table 28, biochemical kinase assay; read-out: LATS2 IC50
pIC50: −log10 of the molar value.
readout kind: pIC50

P: COC(=O)c1c[nH]c2nccc(-c3ccc([C@@]4(O)[C@H](C)CNC[C@@H]4C)c(C)c3)c12
Q: CC1CNCCC1c1ccc(-c2ccnc3[nH]ccc23)cc1 (centres unmarked)
R: Cc1nnc(C2(c3ccc(-c4ccnc5[nH]cc(F)c45)cc3)CCN(C(=O)OC(C)(C)C)CC2)o1
S: Cc1cc(-c2ccnc3[nH]cc(F)c23)cc(F)c1C1(O)[C@H](C)CN(C2COC2)C[C@@H]1C (some centres unmarked)
T: Cc1cc(-c2ccnc3[nH]ccc23)ccc1C1CCNCC1
Qu. // ascending sort on recorded pIC50 Show the ranking through the labels, in the order asked for.
Ans. R, Q, T, S, P

----------
Biological target: UniProt:O95835
Sequence (O95835 whole entry): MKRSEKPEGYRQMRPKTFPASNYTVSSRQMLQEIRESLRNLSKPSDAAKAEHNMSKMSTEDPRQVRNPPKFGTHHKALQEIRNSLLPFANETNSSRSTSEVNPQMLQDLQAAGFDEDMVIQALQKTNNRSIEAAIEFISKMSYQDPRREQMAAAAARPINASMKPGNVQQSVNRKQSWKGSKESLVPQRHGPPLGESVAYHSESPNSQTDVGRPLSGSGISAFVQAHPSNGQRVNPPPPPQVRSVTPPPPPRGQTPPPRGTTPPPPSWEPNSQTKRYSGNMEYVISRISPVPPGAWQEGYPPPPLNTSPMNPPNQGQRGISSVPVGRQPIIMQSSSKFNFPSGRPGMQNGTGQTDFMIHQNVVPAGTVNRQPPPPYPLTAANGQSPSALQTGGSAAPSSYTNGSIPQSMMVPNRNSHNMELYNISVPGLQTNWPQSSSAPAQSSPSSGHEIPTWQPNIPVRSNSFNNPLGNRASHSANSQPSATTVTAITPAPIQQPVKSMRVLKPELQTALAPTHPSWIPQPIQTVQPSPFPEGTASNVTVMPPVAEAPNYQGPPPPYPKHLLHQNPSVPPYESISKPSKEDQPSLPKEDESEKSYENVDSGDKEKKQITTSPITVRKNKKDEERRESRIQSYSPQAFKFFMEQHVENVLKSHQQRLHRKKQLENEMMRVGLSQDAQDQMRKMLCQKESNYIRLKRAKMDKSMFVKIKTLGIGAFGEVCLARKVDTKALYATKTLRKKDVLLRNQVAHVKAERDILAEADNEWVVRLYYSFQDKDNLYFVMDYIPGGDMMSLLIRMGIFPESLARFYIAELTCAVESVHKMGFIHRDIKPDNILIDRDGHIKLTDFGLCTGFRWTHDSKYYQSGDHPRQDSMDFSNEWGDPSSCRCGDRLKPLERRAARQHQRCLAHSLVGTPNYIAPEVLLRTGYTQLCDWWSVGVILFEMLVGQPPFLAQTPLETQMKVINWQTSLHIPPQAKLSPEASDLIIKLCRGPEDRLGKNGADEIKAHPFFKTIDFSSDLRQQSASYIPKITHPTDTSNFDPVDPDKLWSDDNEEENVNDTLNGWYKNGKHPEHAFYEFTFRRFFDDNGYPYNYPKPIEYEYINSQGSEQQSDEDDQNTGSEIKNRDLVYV
Assay: RBC HotSpot kinase assay (33P-ATP, P81 filter-binding), LATS1
Assay type: biochemical
Details: Table 32, biochemical kinase assay; read-out: LATS1 IC50
readout kind: IC50 (nM)

- compound: "NCC(O)(c1ccc(Cl)cc1)c1ccc(-c2ccnc3[nH]cc(Cl)c23)nc1 (stereo not shown)"
  value measured: 0.5
- compound: "NCC(=O)NCC(O)(c1ccc(Cl)cc1)c1ccc(-c2ccnc3[nH]cc(F)c23)cc1 (stereo not shown)"
  value measured: 2.6
- compound: "CC(C)(N)C(=O)NCC(O)(c1ccc(Cl)cc1)c1ccc(-c2ccnc3[nH]ccc23)cc1 (stereo not shown)"
  value measured: 1.9

P: O=C(CO)NCC(O)(c1ccc(Cl)cc1)c1ccc(-c2ccnc3[nH]cc(F)c23)cc1 (stereo not shown)
Q: CN(C)CC(=O)NCC(O)(c1ccc(Cl)cc1)c1ccc(-c2ccnc3[nH]ccc23)cc1 (stereo not shown)
Qu. Higher IC50: P or Q ? Lab log: write the label of the selected item as the result.
Ans. P
(P: 7 nM, Q: 4 nM)

a: NCC(O)(c1ccc(Cl)cc1)c1ccc(-c2ccnc3[nH]cc(Br)c23)nc1 (stereo not shown)
b: O=C(CO)NCC(O)(c1ccc(Cl)cc1)c1ccc(-c2ccnc3[nH]ccc23)cc1 (stereo not shown)
Qu. Please compare: a and b . Report which one has the smaller IC50 value. Lab log: write the label of the selected item as the result.
Ans. a

// provenance: patent US20250361230A1
